Test system: BT-549 breast
Assay: NCI tumour cell line growth inhibition, 48 h
Some molecules, each annotated with its measured TGI.

Examples from the recorded data:
O=C(O)c1cccc(S(=O)(=O)NCCO)c1 = > 100 µM
COc1ccc2cc(-c3cnc4nonc4n3)ccc2c1 = > 100 µM
Cn1c(-c2ccco2)ccc1-c1ccc(C=O)o1 = > 100 µM

Task item: // returns reported TGI for input "COC(=O)Nc1nc2ccc(NS(=O)(=O)c3cccs3)cc2[nH]1"
Reply: > 100 µM

Task item: Any idea what its TGI is? The molecule is "Nn1c(CCCCCCCCc2nnc(-c3c(O)ccc4ccccc34)n2N)nnc1-c1c(O)ccc2ccccc12"
Reply: > 100 µM

====

Form field: TGI (one value per entry).
System: MOLT-4 leukemia
Assay: NCI tumour cell line growth inhibition, 48 h
Express it in µM; write the number only.

CCC1=C(c2ccc(OC)cc2)C(C)(C)Oc2c1ccc(O)c2CN1CCCC1 = 6.53
O=C1c2c(c(=O)[nH]c3ccccc23)[C@H](c2ccccc2)[C@@H]2CCCN12 = 39.2

// switching to the query compound
Task item: Can you look up the measured TGI of "Oc1ccccc1-c1nn(CNc2ccc(Cl)cc2)c(=S)o1" for me?
Reply: 74

====

Test system: ACHN renal
Assay: NCI tumour cell line growth inhibition, 48 h
Item-by-item account of TGI
Report only the number, with the unit µM understood.

Previously resolved entries follow.
Cc1cc2c(F)c(Oc3ncnc(Nc4ccc(N5C[C@@H](C)N[C@@H](C)C5)cc4)c3C#N)cc(F)c2[nH]1 = 4.21
CC(C)(C)c1cc(/C=C(\C#N)C2=NCCO2)cc(C(C)(C)C)c1O = 14.5

Field: next compound
Task item: Give the measured TGI of "O=C(c1c(F)c(F)c(F)c(F)c1F)c1c(F)c(F)c(F)c(F)c1F" .
Reply: 3.09

====

Test system: MDA-N
Assay: NCI tumour cell line growth inhibition, 48 h
Each entry below carries its reported TGI.

NC(=O)c1cc(N2CC2)c([N+](=O)[O-])cc1[N+](=O)[O-] = > 200 µM
O=c1[nH]c(NCc2cccnc2)nc2nc[nH]c12 = > 100 µM
CC(C)(C)OC(=O)C1C(=O)NC(=O)CC1CC(OCc1ccccc1)C(OCc1ccccc1)C(COCc1ccccc1)OCc1ccccc1 (centres undefined) = > 100 µM
Nc1nc(Cl)cc(NCC2(CCO)CCC2)n1 = > 100 µM
COc1ccc(/C=N\N(C)Cc2cccc3ccsc23)cc1 = > 100 µM

Now for a further compound.
Task item: Give the reported TGI for C#CC1(O)CCC2[C@@H]3CCc4cc(Oc5nc(F)nc(-c6c(C)c(C(=O)OCC)n7ccccc67)n5)ccc4C3CC[C@@]21C (some centres undefined) (system: MDA-N).
Reply: > 100 µM

====

System: PC-3 prostate
Assay: NCI tumour cell line growth inhibition, 48 h; in the data active = GI50 below about 0.43 µM; inactive = the rest
Respond only with the outcome that fits, drawn from active, inactive

COc1ccc2c(c1)CCC1C2CC[C@@]2(C)C1CC[C@@H]2NC(=O)Cc1ccc(O)c(O)c1 (stereo partly drawn) = inactive
COc1cnc2c(c1)C(=O)c1c-2n(CCCN2CCCC2)c(=O)c2cc([N+](=O)[O-])ccc12 = active

Would you kindly look at the next entry?
Task item: For CC1=C(C#N)C23C(=O)N(c4ccccc4)C(=O)C2=C(O)C=CC3(O)N1Cc1ccc(Cl)cc1Cl (stereo not drawn) , what call appears in the results of this test?
Reply: inactive

====

System: SK-OV-3 ovarian
Assay: NCI tumour cell line growth inhibition, 48 h
Endpoint label: TGI

Task item: What value of TGI has been recorded for this entry: "NC1=Nc2ccccc2Sc2nncn21"
Reply: > 100 µM

Task item: Give the measured TGI of CC1C(C)(C)C23CC12C1(OCCO1)C3Br (stereo not drawn) .
Reply: > 100 µM

====

System: SW-620 colon
Assay: NCI tumour cell line growth inhibition, 48 h
Endpoint label: TGI

# example entries with known answers
O=C1c2c(c(=O)[nH]c3ccccc23)[C@H](c2ccccc2)[C@@H]2CCCN12 = > 100 µM
COC(=O)C1=C(C)NC(=O)N2[C@@H](CCOCc3ccccc3)CC[C@@H]12 = > 50 µM
CSC(=O)C[C@@]12O[C@@H]([C@@H](C)C3CCC4[C@@H]5C(O)CC6=CC(=O)C=C[C@]6(C)C5CC[C@@]43C)C[C@](C)(O1)C(C)(C)O2 (stereo not given in full) = 33.2 µM
COc1ccc(NC(=O)Oc2ccc3c(C)cc(=O)oc3c2)c(OC)c1 (tested in a mixture with another compound) = > 100 µM
Cn1c(-c2ccco2)ccc1-c1ccc(C=O)o1 = > 100 µM
NC(=S)N/N=C/c1ccc(OC(=O)COc2cc(Cl)c(Cl)cc2Cl)cn1 = > 100 µM
CSC(=NC(=O)c1ccccc1Cl)SCCSC(=NC(=O)c1ccccc1Cl)SC = > 100 µM
COc1ccc2c(c1)c(-c1nc(-c3cn(C)c4ccncc34)cs1)cn2C = 3.73 µM
COc1cc(CCC[P+](c2ccccc2)(c2ccccc2)c2ccccc2)c(OC)c2c1OCO2 = 11.4 µM

Next up:
Task item: Lab note: need TGI with SW-620 colon for entry "COc1ccc(CCN2CCN(CCCc3ccccc3)CC2)cc1" , please look it up.
Reply: > 100 µM

====

Tested on: HT29 colon
Test: NCI tumour cell line growth inhibition, 48 h
Where a SMILES comes first, the peptide text is derived from it. [ ]: non-standard residue; d: D form. pGlu = O=C1CC[CH](C(=O)O)N1
Reported values of TGI for individual entries

For orientation, consider the following solved cases.
O=S1(=O)c2ccccc2N(O)C2=NCCN21 = > 100 µM
COc1cc2nc(N3CCCN(C)CC3)nc(NC3CCN(Cc4ccccc4)CC3)c2cc1OC = 5.26 µM
CCCCCCN(CCCCCC)CCC(=O)c1ccc2cc(Br)c3ccccc3c2c1 = > 100 µM
C#C[C@]1(O)CC[C@H]2[C@@H]3CCC4=C/C(=N\OCCN5CCCCC5)CC[C@]4(C)[C@H]3CC[C@@]21C = 22.4 µM
O=S(=O)(O)c1ccc(N=Nc2ccccc2)cc1 = > 100 µM

Task item: Which measured TGI value corresponds to "COc1ccc(C(=O)/C=C/c2ccc(OCCCCCCCCCCOc3ccc(/C=C/C(=O)c4ccc(OC)cc4)cc3)cc2)cc1" ?
Reply: > 100 µM

Task item: Reported TGI for CN1C(=O)CCC(N2C(=O)c3cccc(NCCOCCOCCNC(=O)c4cc5c(o4)C(=O)c4ccccc4C5=O)c3C2=O)C1=O (stereo not given) : what is it?
Reply: 6.98 µM

Task item: If you can, please state the reported TGI value of C=CCC1(C(=O)OC)CCC/C(=N\O)C1 (stereo not given) .
Reply: > 10 µM

Task item: # input compound: CC(NC(=O)C1CCC(=O)N1)C(=O)N1CCCC1C(N)=O (stereo not drawn) ([pGlu]-Ala-Pro-NH2; configuration not given here) ; wanted: its TGI
Reply: > 100 µM

Task item: Fill blank: measured TGI of the compound "Cc1c(CN2CCN(C(=O)[C@H](C)O)CC2)sc2c(N3CCOCC3)nc(-c3cnc(N)nc3)nc12" is ____.
Reply: > 56.8 µM

Task item: Any idea what TGI was measured for "CCSC[C@@H]1C[C@](O)(c2ccc(Cl)cc2)[C@@H](c2ccc(Cl)cc2)O1" ?
Reply: 30.8 µM

Task item: Returns the measured TGI for the input compound. Input: "Cc1cc(OCc2nnc3n2S(=O)(=O)c2ccccc2N3C)ccc1Cl"
Reply: > 100 µM

Task item: Which TGI is listed for "COc1ccc(/[N+]([O-])=C/c2ccc(OC(=S)S)c(OC)c2)cc1" ?
Reply: > 100 µM

Task item: Could you tell me which TGI is on file for CSC(=O)C[C@@]12O[C@@H]([C@@H](C)C3CCC4[C@@H]5C(O)CC6=CC(=O)C=C[C@]6(C)C5CC[C@@]43C)C[C@](C)(O1)C(C)(C)O2 (stereo not given in full) ?
Reply: 27.6 µM

====

Listing of recorded TGI by entry.
Test system: CAKI-1 renal
Assay: NCI tumour cell line growth inhibition, 48 h

Please review the entries below; each comes with its answer.
COC(=O)c1ccc(NCc2cc(OC)ccc2OC)cc1 = > 100 µM
COc1ccc2c(c1)c(-c1nc(-c3cn(C)c4ccncc34)cs1)cn2C = 3.26 µM
CC1C(C)(C)C23CC12C1(OCCO1)C3Br (stereo not given) = > 100 µM
O=C(OC1=CCN(Br)C1=O)C1=C(O)C(=O)N(Br)C1 = > 100 µM

--- query ---
Task item: Any idea what its TGI is? The compound is "Cc1cc(N)c2ccccc2[n+]1CCCCCCCCCCNc1cc(C)[n+](CCCCCCCCCC[n+]2c(C)cc(N)c3ccccc32)c2ccccc12"
Reply: > 100 µM
